TARGET SYSTEM: HLA-A*02:11
METHOD: IEDB peptide-MHC binding, purified MHC/direct/fluorescence; filed as Kd, often an IC50 or EC50 that approximates it; bounds were set here for any values at or beyond the usual limits of such assays
CONDITIONS: source organism: Rickettsia prowazekii
QUANTITY MEASURED: Kd

Kd recorded for this sequence, FGSGWTWVV , is ≤ 1 nM

* * *

TARGET SYSTEM: HLA-B*18:01
METHOD: IEDB peptide-MHC binding, purified MHC/direct/fluorescence; filed as Kd, often an IC50 or EC50 that approximates it; bounds were set here for any values at or beyond the usual limits of such assays
CONDITIONS: source organism: Escherichia coli O157:H7
pKd: −log10 of the molar value.
QUANTITY MEASURED: pKd

pKd recorded for this sequence, LLKLWIDKV , is ≤ 4.70
